Measured inhibition, listed per entry for reference.
- assay_text: antagonists of CRF-BP/CRF-R2 complex, primary screen, cell-based, HEK293, calcium dye fluorescence, uHTS (AID 588475)
- cond: CRF-induced calcium fluorescence, at 11.8 µM, active compounds read high
Screen size: about 350,000 compounds; about 2,100 (0.6%) were called active. This excerpt belongs to a sample that is enriched for actives.
measured_metric: inhibition (%)

>>> assay_result("COC(=O)C(CC(=O)Nc1cc(C)ccc1C)Nc1ccccc1OC (configuration not stated)")
70.2
>>> assay_result("O=C(OC1CCCCC1=O)c1cccc(S(=O)(=O)NCc2ccccc2)c1 (configuration not stated)")
12.8
>>> assay_result("O=C1CCCCC1C(=O)c1ccccc1 (configuration not stated)")
52.8
>>> assay_result("O=C1/C(=C/c2ccc(F)cc2)SC(=S)N1CCCC(=O)N1CCCCC1CCO (configuration not stated)")
-17.3
>>> assay_result("CCC(C)C(NC(=O)C1CCC(=O)N1C(=O)OCc1ccccc1)C(=O)NC(C(=O)N1CCCC1C(N)=O)C(C)CC (configuration not stated)")
2.28
>>> assay_result("Cc1cccc(C(=O)C(O)(c2ccccc2)C2CCCCC2=O)c1 (configuration not stated)")
-14
>>> assay_result("CC1CN/C(=C\\C(=O)c2ccc(Br)cc2)C(=O)N1 (configuration not stated)")
12.3
>>> assay_result("O=[N+]([O-])c1ncc(Br)cc1Nc1ccccc1")
17.9
>>> assay_result("N#CCc1c[nH]c2ccc([N+](=O)[O-])cc12")
2.31
>>> assay_result("COc1ccc(/C=C2\\SC(=S)N(CCC(=O)N3CCOCC3)C2=O)cc1OC")
-7.34
>>> assay_result("Cc1nonc1C1CCCN1Cc1nc(-c2ccc(F)cc2F)oc1C (configuration not stated)")
17.3
>>> assay_result("CCc1ccc(S(=O)(=O)NCC(O)COc2ccc(OC)cc2)cc1 (configuration not stated)")
-4.68
>>> assay_result("O=C1c2cccc3cccc(c23)C(=O)N1c1cccc(O)c1")
4.66
>>> assay_result("COc1cc(OC)cc(-c2c(C#Cc3ccsc3)c3cc(-c4ccc(SC)cc4)ccc3n2C)c1")
1.84
>>> assay_result("Cc1ccnc(N2CCCC(C(=O)NC3CC3)C2)n1 (configuration not stated)")
50.4
>>> assay_result("NC(=O)C1(N2CCCCC2)CCN(C2CC(=O)N(Cc3ccc(N4CCCC4=O)cc3)C2=O)CC1 (configuration not stated)")
-8.44
>>> assay_result("Cc1ccc(C)c(NC(=O)COC(=O)CSc2ccccc2)c1")
6.02
>>> assay_result("O=C(NC1CC1)C1CCCN(C(=O)NC2CCCCC2)C1 (configuration not stated)")
1.71
>>> assay_result("CCCCCCNC(=O)O[C@]12C[C@@H](C(=O)OC)[C@@H](C(=O)OC)C[C@@]1(O)CN(S(=O)(=O)c1ccc(C)cc1)C2")
-0.13
>>> assay_result("CN(C)C(=O)c1nc2ccc(Cl)cn2c1CNCc1cccc(OC(F)(F)F)c1")
21
>>> assay_result("COc1ccc(N=C2C=CC(=O)O2)cc1")
11.2
>>> assay_result("C=CCOc1ccc(/C=C2\\SC(=S)N(CCC(=O)O)C2=O)cc1")
53.9

====

- assay_text: antagonists of CRF-BP/CRF-R2 complex, primary screen, cell-based, HEK293, calcium dye fluorescence, uHTS (AID 588475)
- cond: CRF-induced calcium fluorescence, at 11.8 µM
In all, about 350,000 compounds went through this assay and about 2,100 (0.6%) were called active.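 How the source made its calls: active means inhibition of the ligand-induced calcium signal above about 50% at the single tested concentration (limit read from the data); inactive means the rest.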 The sample as a whole holds a higher share of actives than the screen did.
Outcomes: active, inactive

>>> class_name("O=C(N[C@H]1C/C=C\\C(c2cccc(F)c2)N(Cc2ccccc2)C(=O)C1)OCC1c2ccccc2-c2ccccc21 (stereo not given in full)")
"active"
>>> class_name("Cc1ccc(C)c(NC(=O)C(OC(=O)c2ccc(C)s2)c2ccccc2)c1 (stereo not given)")
"inactive"
>>> class_name("Cc1nc(C)c(C(=O)N(c2ccc(C)c(C)c2)C(C(=O)NCc2ccco2)c2ccccc2)s1 (stereo not given)")
"inactive"
>>> class_name("O=C(NNc1c2ccccc2nc2ccccc12)c1cc2ccccc2cc1O")
"active"
>>> class_name("COCc1[nH]nc2c1C(C1C=CCCC1)C(C#N)=C(N)O2 (stereo not given)")
"inactive"
>>> class_name("Cc1cccc(N(C(=O)c2sc(C)nc2C)C(C(=O)NCC2CCCO2)c2ccccc2)c1 (stereo not given)")
"active"
>>> class_name("COc1ccccc1-n1c(C)nc2cc(C(=O)NCc3ccc4c(c3)OCO4)ccc21")
"inactive"
>>> class_name("CCOC(=O)/C(C#N)=C\\c1c(C)cc(C)c(COC(C)=O)c1C")
"inactive"
>>> class_name("CC(C)NC(=O)CSc1ccccc1C(=O)NCc1ccc2c(c1)OCO2")
"inactive"
>>> class_name("Cc1ccc(S(=O)(=O)c2c[nH]c3ccc(C)cc3c2=O)cc1")
"inactive"

====

Measured inhibition, listed per entry for reference.
- assay_text: antagonists of CRF-BP/CRF-R2 complex, primary screen, cell-based, HEK293, calcium dye fluorescence, uHTS (AID 588475)
- cond: CRF-induced calcium fluorescence, at 11.8 µM, active compounds read high
Among all 350,000 compounds or so, about 2,100 (0.6%) were called active. What follows is part of a selection rich in actives, with near analogues and random picks from the rest.
measured_metric: inhibition (%)

>>> assay_result("CCOC(=O)N1CCC(NC(=O)C(NS(=O)(=O)c2ccc3c(c2)CCN3C(=O)CC)C(C)C)CC1 (stereo not drawn)")
-2.51
>>> assay_result("CCn1c(SCC(=O)NC2CC2)nnc1-c1ccccn1")
2.34
>>> assay_result("Clc1ccc(Cl)c(Oc2ccc(Oc3nc(Cl)ccc3Cl)cc2)n1")
55.5
>>> assay_result("Cc1cc(=O)oc2c(C(=O)c3ccccc3)c(OCC(N)=O)ccc12")
21.9
>>> assay_result("CN1CCN(C(=O)c2cnn(-c3ccccc3)c2NC(=O)c2ccc([N+](=O)[O-])cc2)CC1")
1.78
>>> assay_result("Cc1nn(-c2ccccc2)c(C)c1/C=C/C(=O)OC(C)C(N)=O (stereo not drawn)")
23.7
>>> assay_result("COC(C[C@@H](O)C[C@H](O)[C@H](C)OCc1ccccc1)OC")
10.3
>>> assay_result("CCOP(=O)(OCC)C(Nc1cccc(C)c1)c1ccc(F)cc1 (stereo not drawn)")
-6.82
>>> assay_result("Cc1ccc(NC(=O)Cn2sc3ccccc3c2=O)cc1")
3.99
>>> assay_result("CCCCn1c(N)c(N(CC(C)C)C(=O)c2cccc(S(=O)(=O)N3CCN(C(C)=O)CC3)c2)c(=O)[nH]c1=O")
8.7
>>> assay_result("O=S(=O)(NCc1ccc2c(c1)OCO2)c1cccc2nsnc12")
-14.6
>>> assay_result("COc1cc(CNCc2cccs2)cc(Br)c1OC")
4.12
>>> assay_result("Cc1ccc(/C=N/NC(=S)NC2CCCCC2)o1")
-28.4
>>> assay_result("COC(=O)c1ccc(CN2C(=O)NC(c3ccccc3)(c3ccccc3)C2=O)o1")
0.1
>>> assay_result("Cc1ccc(S(=O)(=O)NNC(=S)NC(C)(C)C)cc1")
0.02
>>> assay_result("Cc1ccc(S(=O)(=O)N(CC(O)CN2CCCCC2)c2cccc([N+](=O)[O-])c2)cc1 (stereo not drawn)")
-12.3
>>> assay_result("O=C(N/N=C/c1cccc2cccnc12)[C@H]1C[C@@H]1c1ccccc1")
-18.3
>>> assay_result("O=C(Cn1cnc([N+](=O)[O-])n1)NCCc1ccccc1")
67.5
>>> assay_result("Cc1ccc(NC(=O)NC2CCCCC2)cc1S(=O)(=O)N1CCOCC1")
5.45
>>> assay_result("COc1ccccc1N(C)S(=O)(=O)c1ccc(Cl)c(C(=O)N2CCC(C(N)=O)CC2)c1")
17.1
>>> assay_result("CN(C)S(=O)(=O)c1cccc(NC(=S)N/N=C/C(=O)c2ccccc2)c1")
3.21
>>> assay_result("CC1CCc2[nH]c3ccc(C(=O)N(C)CC(=O)Nc4cccc(F)c4)cc3c2C1 (stereo not drawn)")
104
>>> assay_result("CC(C)(C)NC(=O)Cn1cnc([N+](=O)[O-])n1")
4.8
>>> assay_result("O=C(CN1C(=O)CC(c2ccccc2)=Nc2ccccc21)NC1CCCCC1")
3.75
>>> assay_result("Cc1cc(C)c2c(=O)[nH]c(SCC(=O)Nc3ccc(Br)cc3)nc2n1")
-6.59
>>> assay_result("CCCN(CC(=O)Nc1ccccc1C)C(=O)c1ccc2[nH]c3c(c2c1)CC(C)CC3 (stereo not drawn)")
-10.4
>>> assay_result("COc1ccc(CCNC(=O)COC(=O)c2ncc(Cl)c(Cl)c2Cl)cc1OC")
-0.24
>>> assay_result("CN(C(=O)c1cccc(NC(=O)Cc2ccc([N+](=O)[O-])cc2)c1)C1CCC1")
10.4
>>> assay_result("COc1ccc(Cl)cc1C(=O)OCC(=O)NCc1cccs1")
-4.93
>>> assay_result("O=C(Nc1ccc(Br)cc1)c1cc(S(=O)(=O)Nc2ccccn2)ccc1Cl")
-2.82
>>> assay_result("Cc1nn(-c2ccccc2)c(Cl)c1/C=N/NC(=O)c1nn(C)cc1[N+](=O)[O-]")
15.5
>>> assay_result("O=C(NCC(=O)N(CC1CCCO1)C(C(=O)NC1CCCCC1)c1ccccc1)c1ccco1 (stereo not drawn)")
2.38
>>> assay_result("Cc1ccc(-n2cc3ccc([N+](=O)[O-])cc3n2)cc1")
-2.01
>>> assay_result("CCOC(=O)CN1CCC(c2ccccc2)CC1")
-2.05
>>> assay_result("O=C(CCNC(=O)Cn1ccc2ccccc2c1=O)NCCC1=CCCCC1")
-1.26
>>> assay_result("CCn1c(SCC(=O)NC2CC2)nnc1-c1ccccc1OC")
18.7
>>> assay_result("O=C1c2ccccc2C2=Nc3ccccc3SC(c3ccccc3F)C12 (stereo not drawn)")
-94.9
>>> assay_result("CCCCOC(=O)c1ccc(NC(c2ccc(C)cc2)P(=O)(OC)OC)cc1 (stereo not drawn)")
102
>>> assay_result("COc1ccc(C(=O)NC(=S)Nc2ccc(Cl)cn2)cc1OC")
-25.3
>>> assay_result("COc1ccc([N+](=O)[O-])cc1N(CC(O)Cn1nnc2ccccc21)S(=O)(=O)c1ccc(C)cc1 (stereo not drawn)")
67.3
>>> assay_result("COc1ccc(CCNC(=O)c2nnc(CS(=O)(=O)c3ccccc3)o2)cc1OC")
-36.1
>>> assay_result("C/C(=N\\Nc1ccccc1)c1cccs1")
-0.14
>>> assay_result("CC(=O)c1cccc(-n2nnnc2SCC(=O)NNC(=O)C2CCCCC2)c1")
12.7
